Listing: glycan array binding signal (z-score) of selected binders
# subject-of-test: Fuc(a1-2)Gal3S(b1-4)GlcNAc
# protocol: glycan array binding signal (z-score within array); higher = stronger binding
# condition-notes: glycan notation: IUPAC condensed, linker removed
The sample as a whole holds a higher share of the strongest signals than the screen did.

Take a look at these entries with their results.
LecRKVI.2 (protein) RTTTNFAFRGFNGNQSKIRIEGAAMIKPDGLLRLTDRKSNVTGTAFYHKPVRLLNRNSTNVTIRSFSTSFVFVIIPSSSSNKGFGFTFTLSPTPYRLNAGSAQYLGVFNKENNGDPRNHVFAVEFDTVQGSRDDNTDRIGNDIGLNYNSRTSDLQEPVVYYNNDDHNKKEDFQLESGNPIQALLEYDGATQMLNVTVYPARLGFKPTKPLISQHVPKLLEIVQEEMYVGFTASTGKGQSSAHYVMGWSFSSGGERPIADVLILSELPPPPPNKAKKEGLNS :: -0.468
Thrombomodulin (Mus musculus) (protein) ALAKLQPTGSQCVEHECFALFQGPATFLDASQACQRLQGHLMTVRSSVAADVISLLLSQSSMDLGPWIGLQLPQGCDDPVHLGPLRGFQWVTGDNHTSYSRWARPNDQTAPLCGPLCVTVSTATEAAPGEPAWEEKPCETETQGFLCEFYFTASC :: -0.236

Okay, now this binder:
Query: Identify measured glycan array binding signal (z-score) associated with DC-ASGPR Long (Homo sapiens) (protein) MTRTYENFQYLENKVKVQGFKNGPLPLQSLLQRLRSGPCHLLLSLGLGLLLLVIICVVGFQNSKFQRDLVTLRTDFSNFTSNTVAEIQALTSQGSSLEETIASLKAEVEGFKQERQAGVSELQEHTTQKAHLGHCPHCPSVCVPVHSEMLLRVQQLVQDLKKLTCQVATLNNNASTEGTCCPVNWVEHQDSCYWFSHSGMSWAEAEKYCQLKNAHLVVINSREEQNFVQKYLGSAYTWMGLSDPEGAWKWVDGTDYATGFQNWKPGQPDDWQGHGLGGGEDCAHFHPDGGWNDDVCQRPYHWVCEAGLGQTSQESH
Reply: 0.826
